B1: TPR t1 (parent)
chain: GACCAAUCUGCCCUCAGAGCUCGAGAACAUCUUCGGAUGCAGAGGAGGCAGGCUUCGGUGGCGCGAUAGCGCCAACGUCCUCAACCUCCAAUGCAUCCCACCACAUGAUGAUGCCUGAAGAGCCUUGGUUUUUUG

# Variants of: B1
# procedure-summary: polymerase ribozyme fitness, log enrichment relative to wild type (log ratio); higher = more active; in vitro selection for triplet polymerase activity
Entry flag: met if polymerase ribozyme fitness (log ratio) reaches -5; not met if it does not.

{"variant-annotation": "G45U C64U U81A", "group-label": "met"}
{"variant-annotation": "A37C G63C G77C C88U A105U", "group-label": "not met"}
{"variant-annotation": "U59A C82A G93C", "group-label": "met"}
{"variant-annotation": "A84G A118G", "group-label": "met"}
{"variant-annotation": "C11A C99A C123A", "group-label": "not met"}
{"variant-annotation": "A2U G69U", "group-label": "met"}
{"variant-annotation": "C3U C62G", "group-label": "met"}
{"variant-annotation": "C13G G48A C73A", "group-label": "met"}
{"variant-annotation": "C12A A37U A68G C114G", "group-label": "not met"}
{"variant-annotation": "U32A G47U C72U A83U", "group-label": "not met"}
{"variant-annotation": "A18U C124A", "group-label": "met"}
{"variant-annotation": "G36U U59A A90G C97G U106C", "group-label": "met"}
{"variant-annotation": "U106G G120C", "group-label": "met"}
{"variant-annotation": "A24G G39C U92G C104U", "group-label": "not met"}
{"variant-annotation": "C53U A91U", "group-label": "met"}
{"variant-annotation": "C53A C88U C101A", "group-label": "met"}
{"variant-annotation": "G77A", "group-label": "met"}
{"variant-annotation": "U59A C114A", "group-label": "met"}
{"variant-annotation": "G51U U55A C73U U78G C98U A105U", "group-label": "not met"}
{"variant-annotation": "C49U U112A", "group-label": "met"}
{"variant-annotation": "C22A G61A", "group-label": "met"}
{"variant-annotation": "C12A C72U", "group-label": "met"}
